Where these numbers come from: ChEMBL document CHEMBL5357060

system: KB 3-1; experiment: Antiproliferative activity against human KB-3-1 cells assessed as reduction in cell growth incubated for 5 days by MTT assay; type: functional, cell-based; conditions: KB 3-1, 120 h
assayReadout: pIC50
Bear in mind: pIC50 is minus log10 of a mol/L concentration; give just that figure.

Query: Param request: pIC50 | system KB 3-1 | item C/C(=C\CC/C(C)=C/CO[C@@H]1O[C@H](CO)[C@@H](O)[C@H](O)[C@@H]1O)CC/C=C(\C)CCCC(C)(O)CCCC(C)(O)CCCC(C)(O)CCCC(C)(O)CCCC(C)(O)CCC(O)C(C)(C)O (stereo partly specified)
Response: 5.08

----------
assay: Cytotoxicity against mouse L929 cells assessed as reduction in cell viability incubated for 5 days by MTT assay; format: toxicity, cell-based
assayReadout: IC50 at 5 days (µM)
Numeric only. Scale: µM

Query: Identify IC50 at 5 days associated with the compound C/C(=C\CC/C(C)=C/CO[C@@H]1O[C@H](CO)[C@@H](O)[C@H](O)[C@@H]1O)CC/C=C(\C)CCCC(C)(O)CCCC(C)(O)CCCC(C)(O)CCCC(C)(O)CCCC(C)(O)CCC(O)C(C)(C)O (stereo partly specified)
Response: 8.1

----------
test system: A549; assay: Antiproliferative activity against human A549 cells assessed as reduction in cell growth incubated for 5 days by MTT assay; assay type: functional, cell-based; conditions: A549, 120 h
assayReadout: IC50 (µM)
Expressed in µM, but write only the number.

Query: Given C/C(=C\CC/C(C)=C/CO[C@@H]1O[C@H](CO)[C@@H](O)[C@H](O)[C@@H]1O)CC/C=C(\C)CCCC(C)(O)CCCC(C)(O)CCCC(C)(O)CCCC(C)(O)CCCC(C)(O)CCC(O)C(C)(C)O (stereo partly specified) , respond with its IC50.
Response: 4.8
